Some binders, each annotated with its measured SPOT intensity.
- TESTED_ON: Myo3, P36006
- METHOD_NOTES: SPOT array
- CONDITION_LABEL: median of control spots 468
A bare number is all that is needed in reply.

[
  {
    "BINDER": "ALKQKKIPPPFKPHL",
    "REPORTED_MEASUREMENT": 0
  },
  {
    "BINDER": "NNFYRPLLRSVLVLL",
    "REPORTED_MEASUREMENT": 0
  }
]

Ask: Sample "RLSFFFPLDPAYIRN" — what was its SPOT intensity?
Reply: 4

Ask: What do you have for "PPIPIVPSSPAPPLP" ?
Reply: 425

Ask: Input "GKLKHIPRRPYEIER"
Reply: 0

Ask: Also need "KRKRRLPVSEDTNTK" , thanks.
Reply: 9

Ask: What do we get for "KTKQQKPAIPQKKSF" ?
Reply: 2

Where these numbers come from: paper PMC2756588
